system: RXF 393 renal; assay: NCI tumour cell line growth inhibition, 48 h

{"columns": ["compound", "unit.name", "limit.qualifier", "TGI"],
 "data": [
  ["Cc1cc(=O)c2c(O)c3c(O)cc(O)c4c5c(O)cc(O)c6c(O)c7c(=O)cc(C)c8c1c2c(c34)c(c65)c78", "µM", "=", 88.8],
  ["Cn1cc2ccccc2c1-c1nc(F)nc(Oc2ccc3c(c2)CC[C@@H]2C3CC[C@]3(C)C(O)CCC23)n1 (stereo not given in full)", "µM", "=", 72.3],
  ["COC(=O)Nc1nc2c(OC)c(OC)c(OC)cc2[nH]1", "µM", "=", 66],
  ["COc1cc(N(C)C)ccc1/C=c1/c2ccccc2n2c1cc(-c1ccccc1)[n+]2C", "µM", "=", 1.37],
  ["CSc1nc2c(nc(N)n2C2OCC(O)C(O)C2O)c(=O)[nH]1 (stereo not given)", "µM", ">", 100],
  ["O=C1CCC2=C(CCC2)N1CCc1ccc2c(c1)OCO2", "µM", "=", 52.5],
  ["O=c1c2cc(-c3ccccc3)cnc2sn1-c1ccc([N+](=O)[O-])cc1", "µM", "=", 82.1],
  ["CC1=CC(=O)c2cccc(NC3=NCCO3)c21", "µM", ">", 100],
  ["FC1CCN(C2(c3cccs3)CCCCC2)CC1", "µM", ">", 100],
  ["CN(C)c1nc(N(C)C)nc(N(C)CN(C)c2nc(N(C)C)nc(N(C)C)n2)n1", "µM", ">", 100]
]}

###

tested on: SF-268 CNS; test: NCI tumour cell line growth inhibition, 48 h
Listed next: entries and their corresponding TGI.

{"columns": ["compound", "tgt", "TGI"],
 "data": [
  ["O=C(/C=C/c1cccs1)c1ccsc1", "SF-268 CNS", "> 100 µM"],
  ["CSC(=S)N(C)NC(=O)c1cccc(C(=O)NN(C)C(=S)SC)n1", "SF-268 CNS", "43.9 µM"],
  ["N/C(=N\\Nc1nc2cc([N+](=O)[O-])ccc2o1)c1ccccn1", "SF-268 CNS", "1.62 µM"],
  ["Cc1cc(NC2=NCCO2)c2c(c1C)CCCC2", "SF-268 CNS", "54.7 µM"],
  ["COc1ccc(-c2cc(-c3ccccc3)c(C#N)c(=O)[nH]2)cc1", "SF-268 CNS", "> 100 µM"],
  ["CCOC(=O)Nc1nc2c(F)c(F)c(F)cc2s1", "SF-268 CNS", "> 100 µM"],
  ["O=C(N/C(=C\\c1ccc([N+](=O)[O-])cc1)c1nc2[nH]c(=S)[nH]c(=O)c2[nH]1)c1ccccc1", "SF-268 CNS", "> 100 µM"],
  ["C=CCC1NCCC2=C1C(S(=O)(=O)c1ccc(C)cc1)c1ccccc12 (stereo not drawn)", "SF-268 CNS", "34.7 µM"],
  ["O=C(NN=C1CCCCC1)Nc1ccccc1Cl", "SF-268 CNS", "> 100 µM"],
  ["COc1cc2ccc(CC#N)cc2cc1OC", "SF-268 CNS", "> 100 µM"],
  ["CC(C)(C)c1ccc(C(=O)N/N=C/c2ccc(O)cc2O)cc1", "SF-268 CNS", "8.19 µM"],
  ["COC(=O)C1(NC(=O)C(N)CC(=O)O)C(C)C1C (stereo not drawn)", "SF-268 CNS", "> 100 µM"],
  ["C=C(C)CC1=C(C(=S)NCCO[Si](C)(C)C(C)(C)C)C(OCC)(OCC)C1=O", "SF-268 CNS", "47.4 µM"],
  ["C[C@H](CC[C@@H](O)C(C)(C)O)[C@H]1CC[C@@]2(C)[C@@H]3CC=C4[C@@H](CC[C@H](OC5OC(CO)C(O)C(O)C5O)C4(C)C)[C@]3(C)C(=O)C[C@]12C (stereo partly drawn)", "SF-268 CNS", "> 100 µM"],
  ["COc1ccc(N2CCN(c3ccc4c(c3)NCC(=O)N4)CC2)cc1", "SF-268 CNS", "> 100 µM"],
  ["COc1ccc2oc(-c3ccncc3)cc(=O)c2c1", "SF-268 CNS", "> 100 µM"],
  ["O=C(c1ccc(Cl)cc1)N1N=C(c2ccc(Cl)cc2)CC1(O)c1cc(F)c(Cl)cc1Cl (stereo not drawn)", "SF-268 CNS", "> 100 µM"],
  ["CCOC(=O)c1c(-c2[nH]c(C(=O)OCc3ccccc3)c(C)c2C(=O)OCC)[nH]c(C(=O)OCc2ccccc2)c1C", "SF-268 CNS", "> 100 µM"],
  ["C/C1=C\\CC[C@@](C)(O)[C@H]2C[C@H](CC/C(C)=C/CC1)C1(CC1)C(=O)O2", "SF-268 CNS", "41.2 µM"],
  ["Cc1cccc2c(N)c3cccc(C(=O)NCC[N+](C)(C)Cc4sc(N5CCOCC5)nc4[N+](=O)[O-])c3nc12", "SF-268 CNS", "> 100 µM"],
  ["CN(C)c1nc(N(C)C)nc(N(C)CN(C)c2nc(N(C)C)nc(N(C)C)n2)n1", "SF-268 CNS", "> 100 µM"],
  ["O=C(c1ccc(Cl)cc1)N(C(=S)N1CCN(c2ccccn2)CC1)c1ccccc1", "SF-268 CNS", "> 100 µM"],
  ["NC1=CC(=O)C(=O)c2cccnc21", "SF-268 CNS", "18 µM"],
  ["COc1cc(Nc2ncc3c(n2)-c2ccc(Cl)cc2C(c2c(F)cccc2OC)=NC3)ccc1C(=O)O", "SF-268 CNS", "92.8 µM"],
  ["O=[N+]([O-])c1cccc2nc3ccccc3c(NCCC[N+]3([O-])CCCCC3)c12", "SF-268 CNS", "2.22 µM"],
  ["O=C1c2cnccc2Cc2cccc3c2N1c1ccccc1S3", "SF-268 CNS", "> 100 µM"],
  ["O=C1Nc2ccccc2C12CC(c1ccccc1)=NN2 (stereo not drawn)", "SF-268 CNS", "> 100 µM"],
  ["C(=C1\\CCC/C(=C/c2ccccc2)C1=NNc1ccccc1)/c1ccccc1", "SF-268 CNS", "> 100 µM"],
  ["COc1ccc2nc(-c3ccccc3)cc(Nc3ccc(/C(C)=N/O)cc3)c2c1", "SF-268 CNS", "> 23 µM"],
  ["C#CCOCn1cnc2ncnc(Cl)c21", "SF-268 CNS", "> 100 µM"],
  ["Cc1cc(-c2ccccc2)c(C)n1Cc1ccc(Cl)cc1", "SF-268 CNS", "> 100 µM"],
  ["CCOC(=O)CNC(SC)=C(C#N)C#N", "SF-268 CNS", "> 100 µM"],
  ["Oc1c(I)cc(I)cc1CNCCCN(Cc1ccccn1)Cc1ccccn1", "SF-268 CNS", "3.21 µM"]
]}

###

Listing of entries alongside the reported log10 TGI.
test system: RPMI-8226 leukemia; assay: NCI tumour cell line growth inhibition, 48 h
attribute.measured: log10 TGI (log10 of the value in µM)

{"columns": ["compound", "tgt", "log10 TGI"],
 "data": [
  ["O=[N+]([O-])c1cccc2nc3ccccc3c(NCCC[N+]3([O-])CCCCC3)c12", "RPMI-8226 leukemia", 1.02],
  ["COc1cc(N(C)C)ccc1/C=c1/c2ccccc2n2c1cc(-c1ccccc1)[n+]2C", "RPMI-8226 leukemia", 0.11],
  ["O=C1NC(=O)c2c1c1c3ccccc3ccc1c1[nH]c3ccc(Br)cc3c21", "RPMI-8226 leukemia", 0.46],
  ["Cn1cc(-c2csc(-c3cn(CCN4CCOCC4)c4ccc(F)cc34)n2)c2cccnc21", "RPMI-8226 leukemia", 0.70],
  ["O=C1C=C(N2CC2)c2ccccc2C1=O", "RPMI-8226 leukemia", 0.71],
  ["Cc1ccc(NC(=O)c2cccc([N+](=O)[O-])c2O)c(C)c1", "RPMI-8226 leukemia", 1.97],
  ["CC(=O)NNC(=O)c1nn(-c2ccc(Cl)cc2)cc1OC(C)=O", "RPMI-8226 leukemia", 1.81],
  ["O=C(Cc1ccc(/C=C/C(=O)c2ncc[nH]2)cc1)Nc1ccc(Br)cc1", "RPMI-8226 leukemia", 0.61],
  ["O=C1CC(c2ccccc2)Cc2nc3ccc(Cl)cc3cc21 (stereo not given)", "RPMI-8226 leukemia", 1.58],
  ["C/C1=C\\CC[C@@](C)(O)[C@H]2C[C@H](CC/C(C)=C/CC1)C1(CC1)C(=O)O2", "RPMI-8226 leukemia", 1.55],
  ["O=C1c2ccccc2C2(c3ccc(Cl)cc3)NCc3ccccc3CN12 (stereo not given)", "RPMI-8226 leukemia", 1.88]
]}
